Measurement notes: in vitro
Test parameters: human, 20% fecal homogenate (supernatant), anaerobic, pH 6.8
Bridge positions count the residues as written; N and C are the ends. Square brackets hold non-standard residues; d marks the D form. Peptide text beside a SMILES is read from it. Trp(7-Me) = Cc1cccc2c(C[C@H](N)C(=O)O)c[nH]c12; 2Nal = N[C@@H](Cc1ccc2ccccc2c1)C(=O)O; AEF = NCCOc1ccc(C[C@H](N)C(=O)O)cc1; Cit = NC(=O)NCCC[C@H](N)C(=O)O; Pen = CC(C)(S)[C@H](N)C(=O)O; αMeK = C[C@](N)(CCCCN)C(=O)O; Aib = CC(C)(N)C(=O)O
half-life at 20 μM overview

Molecule | half-life at 20 μM
CC(=O)NCCCC[C@H](NC(=O)[C@](C)(CC(C)C)NC(=O)[C@H](Cc1ccc2ccccc2c1)NC(=O)[C@H](Cc1ccc(OCCN)cc1)NC(=O)[C@H]1NC(=O)[C@H](CCC(N)=O)NC(=O)[C@H](Cc2c[nH]c3c(C)cccc23)NC(=O)[C@H]([C@@H](C)O)NC(=O)[C@H](CC(N)=O)NC(=O)[C@@H](NC(C)=O)C(C)(C)SSC1(C)C)C(=O)N[C@H](CC(C)C)C(=O)NCCC(N)=O | > 24 h
CC(=O)NCCCC[C@H](NC(=O)[C@](C)(CCCCN)NC(=O)[C@H](Cc1ccc2ccccc2c1)NC(=O)[C@H](Cc1ccc(OCCN)cc1)NC(=O)[C@H]1NC(=O)[C@H](CCCNC(N)=O)NC(=O)[C@H](Cc2c[nH]c3c(C)cccc23)NC(=O)[C@H]([C@@H](C)O)NC(=O)[C@H](CC(N)=O)NC(=O)[C@@H](NC(C)=O)C(C)(C)SSC1(C)C)C(=O)N[C@@H](CC(N)=O)C(=O)NC(C)(C)C(N)=O [compound 264] (Ac-[Pen]NT[Trp(7-Me)][Cit][Pen][AEF][2Nal][αMeK]K(Ac)N[Aib]-NH2; disulfide 1-6) | > 24 h

###

Measurement notes: in vitro
Assay type: in vitro ADME
Parameters: dose or concentration left out as unconfirmed
Test parameters: simulated intestinal fluid (SIF) with pancreatin, pH 6.8, 37° C., § matrix is 100 fold dilution of standard SIF concentration, read-out: SIF t½ (converted)
Numbered stars: 1 amine (or outer) side, 2 acyl side, 3 side chain; on linkers, the order of the positions; unused ones are H or OH. Bridge positions count the residues as written; N and C are the ends. Square brackets hold non-standard residues; d marks the D form. Peptide text beside a SMILES is read from it. X1 = CCc1cccc2c(C[C@H](N[*:1])C(=O)[*:2])c[nH]c12; 2Nal = N[C@@H](Cc1ccc2ccccc2c1)C(=O)O; AEF = NCCOc1ccc(C[C@H](N)C(=O)O)cc1; Pen = CC(C)(S)[C@H](N)C(=O)O; αMeK = C[C@](N)(CCCCN)C(=O)O
half-life overview
Readout: half-life

Molecule | Readout | Measurement
CC(=O)NCCCC[C@@H]1NC(=O)[C@H](Cc2c[nH]c3c(C)cccc23)NC(=O)[C@H]([C@@H](C)O)NC(=O)[C@H](CC(N)=O)NC(=O)[C@@H](NC(C)=O)C(C)(C)SSC(C)(C)[C@@H](C(=O)N[C@@H](Cc2ccc(OCCN)cc2)C(=O)N[C@@H](Cc2ccc3ccccc3c2)C(=O)N[C@@](C)(CCCCN)C(=O)N[C@@H](CCCCNC(C)=O)C(=O)N[C@@H](CC(N)=O)C(=O)N2CCC[C@@H]2C(N)=O)NC1=O | half-life | 16 h
CCc1cccc2c(C[C@@H]3NC(=O)[C@H]([C@@H](C)O)NC(=O)[C@H](CC(N)=O)NC(=O)[C@@H](NC(C)=O)C(C)(C)SSC(C)(C)[C@@H](C(=O)N[C@@H](Cc4ccc(OCCN)cc4)C(=O)N[C@@H](Cc4ccc5ccccc5c4)C(=O)N[C@@](C)(CCCCN)C(=O)N[C@@H](CCCCNC(C)=O)C(=O)N[C@@H](CC(N)=O)C(=O)N[C@H](CC(C)C)C(N)=O)NC(=O)[C@H](CCCCNC(C)=O)NC3=O)c[nH]c12 [compound 284] (Ac-[Pen]NT[X1]K(Ac)[Pen][AEF][2Nal][αMeK]K(Ac)N[dL]-NH2; disulfide 1-6) | half-life | 2 h

###

IC50 overview
Tested system: IL-23R (Homo sapiens, UniProt Q5VWK5)
Sequence (Q5VWK5 24-629): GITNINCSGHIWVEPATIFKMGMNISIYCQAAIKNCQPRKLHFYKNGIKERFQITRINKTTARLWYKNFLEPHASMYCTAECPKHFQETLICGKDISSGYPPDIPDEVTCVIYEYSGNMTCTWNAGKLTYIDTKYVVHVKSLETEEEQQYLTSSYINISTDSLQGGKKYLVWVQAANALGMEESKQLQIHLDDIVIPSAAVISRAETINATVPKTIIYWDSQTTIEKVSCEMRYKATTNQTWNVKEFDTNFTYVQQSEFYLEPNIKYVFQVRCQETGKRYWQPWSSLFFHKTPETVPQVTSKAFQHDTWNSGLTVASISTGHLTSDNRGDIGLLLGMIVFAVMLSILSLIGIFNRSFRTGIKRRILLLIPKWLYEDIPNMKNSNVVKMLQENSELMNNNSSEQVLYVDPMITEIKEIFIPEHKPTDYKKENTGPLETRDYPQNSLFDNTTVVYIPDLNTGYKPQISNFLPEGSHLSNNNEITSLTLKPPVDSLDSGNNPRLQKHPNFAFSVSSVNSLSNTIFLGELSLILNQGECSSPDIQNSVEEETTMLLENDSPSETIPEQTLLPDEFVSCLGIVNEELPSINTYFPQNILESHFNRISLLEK
Measurement notes: DB cells IL23R pSTAT3 cell assay (pStat3 HTRF)
Format: cell-based
Test parameters: Table E3; DB cells, IL-23 0.5 nM, 30 minutes at 37° C.; read-out: pStat3 HTRF (IC50)
Bridge positions count the residues as written; N and C are the ends. Square brackets hold non-standard residues; d marks the D form. Peptide text beside a SMILES is read from it. Trp(7-Me) = Cc1cccc2c(C[C@H](N)C(=O)O)c[nH]c12; 2Nal = N[C@@H](Cc1ccc2ccccc2c1)C(=O)O; AEF = NCCOc1ccc(C[C@H](N)C(=O)O)cc1; αMeL = CC(C)C[C@](C)(N)C(=O)O; Pen = CC(C)(S)[C@H](N)C(=O)O; αMeK = C[C@](N)(CCCCN)C(=O)O; βAla = NCCC(=O)O

Compound | IC50
CC(=O)NCCCC[C@H](NC(=O)[C@](C)(CCCN)NC(=O)[C@H](Cc1ccc2ccccc2c1)NC(=O)[C@H](Cc1ccc(OCCN)cc1)NC(=O)[C@H]1NC(=O)[C@H](CCC(N)=O)NC(=O)[C@H](Cc2c[nH]c3c(C)cccc23)NC(=O)[C@H]([C@@H](C)O)NC(=O)[C@H](CC(N)=O)NC(=O)[C@@H](NC(C)=O)C(C)(C)SSC1(C)C)C(=O)N[C@@H](CC(N)=O)C(=O)NCCC(N)=O | < 1 nM
CC(=O)NCCCC[C@H](NC(=O)[C@](C)(CCCCN)NC(=O)[C@H](Cc1ccc2ccccc2c1)NC(=O)[C@H](Cc1ccc(OCCN)cc1)NC(=O)[C@H]1NC(=O)[C@](C)(CC(C)C)NC(=O)[C@H](Cc2c[nH]c3c(C)cccc23)NC(=O)[C@H]([C@@H](C)O)NC(=O)[C@H](CC(N)=O)NC(=O)[C@@H](NC(C)=O)C(C)(C)SSC1(C)C)C(=O)N[C@@H](CC(N)=O)C(=O)NCCC(N)=O [compound 235] (Ac-[Pen]NT[Trp(7-Me)][αMeL][Pen][AEF][2Nal][αMeK]K(Ac)N[βAla]-NH2; disulfide 1-6) | 1 to 10 nM

###

Measurement notes: in vitro
Test parameters: human, 20% fecal homogenate (supernatant), anaerobic, pH 6.8
half-life at 20 μM overview
Readout: half-life at 20 μM

Smiles code | Measurement
CC(=O)NCCCC[C@H](NC(=O)[C@](C)(CC(C)C)NC(=O)[C@H](Cc1ccc2ccccc2c1)NC(=O)[C@H](Cc1ccc(OCCN)cc1)NC(=O)[C@H]1NC(=O)[C@H](CCC(N)=O)NC(=O)[C@H](Cc2c[nH]c3c(C)cccc23)NC(=O)[C@H]([C@@H](C)O)NC(=O)[C@H](CC(N)=O)NC(=O)[C@@H](NC(C)=O)C(C)(C)SSC1(C)C)C(=O)N(C)[C@@H](C)C(=O)NCCC(N)=O | > 24 h
CC(=O)NCCCC[C@H](NC(=O)[C@](C)(CC(C)C)NC(=O)[C@H](Cc1ccc2ccccc2c1)NC(=O)[C@H](Cc1ccc(OCCN)cc1)NC(=O)[C@H]1NC(=O)[C@H](CCC(N)=O)NC(=O)[C@H](Cc2c[nH]c3c(C)cccc23)NC(=O)[C@H]([C@@H](C)O)NC(=O)[C@H](CC(N)=O)NC(=O)[C@@H](NC(C)=O)C(C)(C)SSC1(C)C)C(=O)N[C@@H](CC(N)=O)C(=O)NCCC(N)=O | > 24 h
CC(=O)NCCCC[C@@H]1NC(=O)[C@H](Cc2c[nH]c3c(C)cccc23)NC(=O)[C@H]([C@@H](C)O)NC(=O)[C@H](CC(N)=O)NC(=O)[C@@H](NC(C)=O)C(C)(C)SSC(C)(C)[C@@H](C(=O)N[C@@H](Cc2ccc(OCCN)cc2)C(=O)N[C@@H](Cc2ccc3ccccc3c2)C(=O)N[C@@](C)(CCCCN)C(=O)N[C@@H](CCCCNC(C)=O)C(=O)N[C@@H](CO)C(=O)NCCC(N)=O)NC1=O | > 24 h
